- System: Key Broadleaf Weed and Crop Species
- protocol_summary: Post-Emergent Test II: postemergent herbicidal activity, visual rating after 14 d (Table 7)
- Assay type: in vivo
- protocol_conditions: post-emergence, 336 h, sunflower (Helianthus annuus), 140 g ai/ha, read-out: Visual Growth Reduction (%) 14 Days After Application HELAN
measurement_label: pest or weed control at 140 g/ha

Any idea what pest or weed control at 140 g/ha was measured for "COC(=O)c1nc(-c2cc3c(cc2F)OCO3)c(F)c(N)c1OC" ? 95 to 100%

Could you tell me which pest or weed control at 140 g/ha is on file for "COC(=O)c1nc(-c2ccc3c(c2Cl)OC(F)(F)O3)cc(N)c1Cl" ? 85 to 94%

Entry "C=Cc1c(C(=O)O)nc(-c2cc3c(cc2F)OC(F)(F)O3)c(F)c1N" : reported pest or weed control at 140 g/ha = ? 95 to 100%
